- Protocol Conditions: acidic group
Test Readout: pKa

Take a look at these entries with their results.
CC(C)[NH2+]CC(=O)c1ccc(O)cc1: 7.56
[NH3+][C@@H](Cc1c[nH]c[nH+]1)C(=O)NCC(=O)O: 2.4
CCNC(=O)CS: 8.14
CC1(C)SC(=O)NC1=O: 6.64
Brc1ccc([P+](c2ccccc2)(c2ccccc2)C2c3ccccc3-c3ccccc32)cc1: 8.67

q: I'd like to know its pKa. The compound in question is Oc1ccc2c(c1)CCC2
a: 10.3

q: Now this one: Cc1nnc(S)n1N
a: 7.97

q: Would you kindly repeat that for O=C1CC(=O)CS(=O)C1 ?
a: 3.12

q: Okay, and NS(=O)(=O)c1cccc(C(F)(F)F)c1 ?
a: 8.98

q: Note, next up: NC(=O)/C(=N/O)c1ccccc1
a: 9.55

q: Input CC(C)[C@H]1C[NH2+][C@H](C(=O)O)[C@H]1CC(=O)O
a: 2.12

q: Try COC(=O)c1cccc(NC=S)c1 next.
a: 10.8

q: Also O=c1ccc(O)ccc1O ?
a: 6.47

q: Could you do the same for Oc1ccc2c(c1)CCCC2 , please?
a: 10.3

q: Continue with O=S(=O)([O-])c1c(O)ccc2[nH]ncc12
a: 10.6

q: Would you kindly repeat that for CSc1ccccc1C(=O)O ?
a: 3.89

q: What about this compound? CC(=O)C(C(C)=O)c1ccccc1
a: 9.32

* * *

Recorded pKa values for a group of compounds are listed next.
- Protocol Conditions: acidic group
// no unit, no text: just the number

As a guide, the following entries are already answered.
Cc1ncsc1C(=O)O: 3.54
CCC(=O)NO: 9.46
O=C(O)c1c[nH]c2ccccc12: 5.27
CCc1cc(Cl)c(O)c(C(=O)NC[C@H]2CCC[NH+]2CC)c1OC: 6.91
CC(C)N(Cc1ccccc1O)C(C)C: 11.4

q: Would you mind telling me what pKa value was observed for O=C(O)C12CC3CC(CC(C3)C1)C2 ?
a: 4.95

q: Please give the result for O=C(O)CCCC1CCCCC1 too.
a: 4.95

q: Now try NC1=[NH+][C@@H](CC(=O)O)C(=O)N1CCCC([NH3+])C(=O)[O-] (stereo partly specified) .
a: 3.26

q: Next compound up: [O-]c1cc(O)cc[nH+]1
a: 6.5

q: Try the compound O=C(C[n+]1ccccc1)c1ccccc1
a: 10.9

q: Also need Oc1ccc(O)cc1 , thanks.
a: 9.93

* * *

- Protocol Conditions: acidic group
# pKa annotations
Answer field: number only, no words.

Clc1ncnc2nc[nH]c12: 7.75
Oc1ccc(-c2cc(=S)ss2)cc1: 7.86
Oc1nc2nc[nH]c2c(O)[nH+]1: 1.2
O=C(Cc1ccccc1)c1cc[n+](Cc2cccc([N+](=O)[O-])c2)cc1: 8.68
Cc1cccc(C(=O)O)c1Cl: 3

q: What value of measured pKa is listed for O=C(O)[C@H]1C[C@@H]1c1cccc([N+](=O)[O-])c1 ?
a: 4.41

q: And what about the molecule O=[N+]([O-])c1ccc(-c2ccc(O)cc2)cc1 ?
a: 9.01

* * *

- Protocol Conditions: basic group
// label = satisfied if pKa is not less than 6, otherwise not satisfied

Known results for molecules:
Nc1ncnc2[nH]ncc12: not satisfied
CCN(CC)CC(=O)Nc1ccc([N+](=O)[O-])cc1: satisfied
OCC1CN2CCC1CC2 (stereo unspecified): satisfied
C[n+]1c([S-])ccnc1[S-]: satisfied
CC(C)[C@H](N)C(=O)[O-]: satisfied
CCN(CC)CCNc1nc(N)nc(C)c1C: satisfied
CC(C)(C)CNc1ccccc1: not satisfied
CC1(C)CC(NCCO)CC(C)(C)N1: satisfied
Nc1ccc2[nH]c(Cc3ccccc3)[nH+]c2c1: not satisfied
CC(=O)c1ccc(O)c2ncccc12: not satisfied

q: Entry CC[C@]12CCCN3CC[C@@]4(c5cccc(OC)c5N(C(C)=O)[C@H]4CC1)[C@@H]32 : is its pKa no less than 6?
a: satisfied

q: Same question, CNC(=O)C1CCCCN1 (stereo unspecified) this time
a: satisfied

q: // next record CN(C)c1cccc2cccc(N(C)C)c12
a: satisfied

q: Now try COc1cccc2c1CN(C1CC3CCC(C1)N3Cc1ccccc1)C2=O (stereo unspecified) .
a: satisfied

q: Now try CCOc1cccc(C(=O)N[C@@H]2C[C@H]3CC[C@@H](C2)N3Cc2ccccc2)c1OC .
a: satisfied

q: // query: CNCCN(C)CCN
a: satisfied

q: Now the same for c1cc2nccnc2cn1
a: not satisfied

q: How about Cc1ccnc(-c2cc(C)ccn2)c1 ?
a: not satisfied

q: // repeat for C[n+]1ccc(N)nc1[O-] and report
a: not satisfied

q: Consider next the molecule CCc1cc(C)nnc1C in the same way.
a: not satisfied

q: // same read-out, input: COCc1ccccc1CN(C)C
a: satisfied
